system: full-length human Mineralocorticoid Receptor (MR) (Homo sapiens)
Construct: host or cells: PathHunter CHO-K1 cells
Sequence (P08235 whole entry): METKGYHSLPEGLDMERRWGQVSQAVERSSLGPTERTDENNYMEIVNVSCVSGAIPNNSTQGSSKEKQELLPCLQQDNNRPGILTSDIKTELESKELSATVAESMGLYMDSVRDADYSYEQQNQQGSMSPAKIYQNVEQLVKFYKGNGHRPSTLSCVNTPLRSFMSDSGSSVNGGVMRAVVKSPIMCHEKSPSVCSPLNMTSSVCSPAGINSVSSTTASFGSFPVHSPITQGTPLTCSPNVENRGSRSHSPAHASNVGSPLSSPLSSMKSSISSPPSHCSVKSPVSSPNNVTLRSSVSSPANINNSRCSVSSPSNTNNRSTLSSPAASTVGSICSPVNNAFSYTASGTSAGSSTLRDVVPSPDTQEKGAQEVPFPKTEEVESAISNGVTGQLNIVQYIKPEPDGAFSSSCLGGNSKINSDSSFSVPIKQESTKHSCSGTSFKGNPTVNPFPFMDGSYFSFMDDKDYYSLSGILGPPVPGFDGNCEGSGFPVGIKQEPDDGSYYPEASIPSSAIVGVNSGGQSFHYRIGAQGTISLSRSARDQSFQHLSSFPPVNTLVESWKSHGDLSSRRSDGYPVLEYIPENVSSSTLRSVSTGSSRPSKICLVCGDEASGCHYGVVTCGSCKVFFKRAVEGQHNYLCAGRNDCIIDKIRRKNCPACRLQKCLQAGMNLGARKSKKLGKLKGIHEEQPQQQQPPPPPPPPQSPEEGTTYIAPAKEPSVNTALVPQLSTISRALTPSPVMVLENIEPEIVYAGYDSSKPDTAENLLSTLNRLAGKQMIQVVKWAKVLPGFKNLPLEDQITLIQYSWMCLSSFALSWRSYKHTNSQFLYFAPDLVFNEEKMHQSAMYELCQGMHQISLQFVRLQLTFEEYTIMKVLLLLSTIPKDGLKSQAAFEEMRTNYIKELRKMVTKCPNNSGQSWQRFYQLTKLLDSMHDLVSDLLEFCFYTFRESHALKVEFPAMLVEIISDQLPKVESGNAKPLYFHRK
assay-explanation: human MR NH Pro assay (PathHunter Protein:Protein interaction assay), MR antagonist activity
Assay type: cell-based
experimental-setup: PathHunter CHO-K1 cells overexpressing human MR; aldosterone about 0.3 nM; 6 hours at 37° C.; luminescence; read-out: Primary Assay IP rating (IP = inflection point for a given dose-response titration curve)
Answer each item with its documented IC50.

**Q:** Any idea what its IC50 is? The molecule is CCC(CCO)(c1ccc(Cl)cc1)n1ccc2c(NS(C)(=O)=O)cccc21 (single isomer, unassigned) [Compound 160]
**A:** < 100 nM

**Q:** Any idea what its IC50 is? The molecule is CCC(c1ccc(Cl)cc1)(c1nnc(-c2ccc(Cl)cc2)o1)n1ccc2c(NS(C)(=O)=O)cccc21 (stereo not shown)
**A:** < 100 nM

**Q:** Any idea what its IC50 is? The molecule is CCC(c1ccc(Cl)cc1)(c1nnc(-c2ccc(C(F)(F)F)cc2)o1)n1ccc2c(NS(C)(=O)=O)cccc21 (stereo not shown)
**A:** 100 to 500 nM

**Q:** Any idea what its IC50 is? The molecule is CCC(COC)(c1ccc(Cl)cc1)n1ncc2c(NS(C)(=O)=O)cccc21 (single isomer, unassigned)
**A:** < 100 nM

**Q:** Any idea what its IC50 is? The molecule is CCC(c1ccc(Cl)cc1)(c1noc(-c2ccc(Cl)cc2)n1)n1ccc2c(NS(C)(=O)=O)cccc21 (stereo not shown)
**A:** < 100 nM

**Q:** Any idea what its IC50 is? The molecule is CCC(C(C)=O)(c1ccc(C(F)(F)F)cc1)n1ccc2c(NS(C)(=O)=O)cccc21 (single isomer, unassigned) [Compound 102]
**A:** 100 to 500 nM

**Q:** Any idea what its IC50 is? The molecule is CC(C)(C)OC(=O)C(c1ccc(Cl)cc1)n1ccc2c(NS(C)(=O)=O)cccc21 (stereo not shown)
**A:** 500 to 5000 nM

**Q:** Any idea what its IC50 is? The molecule is CCC(CCC#N)(c1ccccc1)n1ncc2c(NS(C)(=O)=O)cc(F)cc21 (stereo not shown)
**A:** < 100 nM

**Q:** Any idea what its IC50 is? The molecule is CCC(CCC(=O)OC)(c1ccc(Cl)cc1)n1ccc2c(NS(C)(=O)=O)cccc21 (stereo not shown)
**A:** < 100 nM

**Q:** Any idea what its IC50 is? The molecule is CC[C@](C(=O)NCc1ccccc1)(c1ccc(Cl)cc1)n1ccc2c(NS(C)(=O)=O)cccc21
**A:** 500 to 5000 nM
